Each item that follows carries a reported GLP-1 receptor potency [EC50] pM 0% HSA.
molecular target: human GLP-1 receptor (human, UniProt P43220 24-463); assay: cell-based or functional assay
Write it as a number; the unit pM goes unstated.

[8G, 22E, 36G]GLP-1(7-37)-(GAQP)x2, … (ligand, Cys of the spacer (residue 40 of the chain) S-alkylated with substituent Chem. 7) HGEGTFTSDVSSYLEEQAAKEFIAWLVKGGGGAQPGAQPCGAQPGAQPAHPIPDSSPLLQFGGQVRQRYLYTDDAQQTEAHLEIREDGTVGGAADQSPESLLQLKALKPGVIQILGVKTSRFLCQRPDGALYGSLHFDPEACSFRELLLEDGYNVYQSEAHGLPLHLPGQKSPHRDPAPRGPARFLPLPGLPPALPEPPGILAPQPPDVGSSDPLSLVGGSQGRSPSYAS
92.3

Query string: Which value of GLP-1 receptor potency [EC50] pM 0% HSA has been reported for S{Beta-27}-[2-[2-[[2-[2-[2-[[2-[2-[2-[[(4S)-4-carboxy-4-(17-carboxyheptadecanoyl-amino)butanoyl]amino]ethoxy]ethoxy]acetyl]amino]ethoxy]ethoxy]acetyl]amino]-eth … (ligand, Cys27 of the GLP-1 part (GLP-1(7-37) numbering; residue 21 of the chain) S-alkylated with substituent Chem. 7) HGEGTFTSDVSSYLEEQAARCFIAWLVKGGGGAQPGAQPGAQPGAQPAHPIPDSSPLLQFGGQVRQRYLYTDDAQQTEAHLEIREDGTVGGAADQSPESLLQLKALKPGVIQILGVKTSRFLCQRPDGALYGSLHFDPEACSFRELLLEDGYNVYQSEAHGLPLHLPGQKSPHRDPAPRGPARFLPLPGLPPALPEPPGILAPQPPDVGSSDPLSLVGGSQGRSPSYES in the records?
Result string: 17.2

Query string: Follow-up entry: S{Beta-27}-[2-[2-[[2-[2-[2-[[2-[2-[2-[[(4S)-4-carboxy-4-(17-carboxyheptadecanoyl-amino)butanoyl]amino]ethoxy]ethoxy]acetyl]amino]ethoxy]ethoxy]acetyl]amino]-eth … (ligand, Cys27 of the GLP-1 part (GLP-1(7-37) numbering; residue 21 of the chain) S-alkylated with substituent Chem. 7) HGEGTFTSDVSSYLEEQAAKCFIAWLVKGGGGAQPGAQPGAQPGAQPGAQPGAQPGAQPGAQPAHPIPDSSPLLQFGGQVRQRYLYTDDAQQTEAHLEIREDGTVGGAADQSPESLLQLKALKPGVIQILGVKTSRFLCQRPDGALYGSLHFDPEACSFRELLLEDGYNVYQSEAHGLPLHLPGQKSPHRDPAPRGPARFLPLPGLPPALPEPPGILAPQPPDVGSSDPLSLVGGSQGRSPSYAS
Result string: 15.7
